Data provenance: paper PMC12874371

# TARGET: PqsE(S285W) (Pseudomonas aeruginosa, UniProt P20581, S285W)
# Construct: 6xHis (N)
# METHOD_SUMMARY: biochemical
pIC50: −log10 of the molar value.
MEASURED_METRIC: pIC50

1) CN1CCc2cccc3c2[C@H]1Cc1ccc(O)c(O)c1-3 : 4.66
